# assay.remarks: NFAT Signaling Pathway (AID 444);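 note: carbachol stimulus at about its EC50 of 1 µM final; % is set by controls: 0 for no effect and ±100 for the full control effect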
# applied.conditions: Jurkat NFAT-bla M1, carbachol, beta-lactamase ratio, 5 h; at 7.69 µM (top of the series) unless noted
Inconclusive results are not listed. Activity calls are given as the source filed them. Calls come from the whole dose curve; as a rule, active = well fitted curve in either direction with a large enough effect (not every such curve was filed as active); inconclusive = small, poorly fitted or top-dose-only effect, or another doubt; inactive = flat fitted curve, though single readings scatter.
// reported activity change, negative = inhibition for each item listed

Read the entry `O=C(O)Cc1c(O)ccc2ccccc12` and write its reported activity change, negative = inhibition.
12.6% (inactive)

Further cases:
Kindly indicate its recorded activity change, negative = inhibition. Item: `O=c1cnc2cnc(Oc3ccccc3)nc2n1Cc1ccc(F)cc1`
-4.49% (inactive)

Give reported activity change, negative = inhibition value for `O=C(O)c1c(-c2nccc3ccccc23)[nH]c(-c2ccccc2)c1S(=O)(=O)O`
12% (inactive)

====

# assay.target: Cytochrome P450 1A2 (Homo sapiens)
# assay.remarks: p450-cyp1a2 (AID 410); note: potency is the fitted concentration of half-maximal effect
# applied.conditions: recombinant CYP1A2, luciferin-ME demethylation, luminescence; series mostly up to 11.4 µM
# Method: The P450 gene superfamily is involved in metabolism and the clearance of xenobiotics. This assay used human CYP1A2 to measure the demethylation of luciferin 6' methyl ether (Luciferin-ME; Promega-Glo) to luciferin. The luciferin is then measured by luminescence after the addition of a luciferase detection regeant. Luciferin-ME concentration in the assay was equal to its Km for CYP1A2. NCGC Assay Protocol Summary: […]
Inconclusive results are not listed. The source made the active and inactive calls. Calls come from the whole dose curve.
measured.endpoint: Potency

Field: example entries. Status: answers known.
Kindly indicate its recorded Potency. Item: `NC(N)=N[C@H](CCC(=O)O)C(=O)O`
inactive

Give the value of Potency reported for the following: `N[C@H](C(=O)O)[C@H](N)C(=O)O`
inactive

Read the entry `CC(C)[C@@H]1NC(=O)[C@H](CCCCN)NC(=O)[C@H](Cc2c[nH]c3ccccc23)NC(=O)[C@H](Cc2ccc(O)cc2)NC(=O)[C@H](C)N(C)C(=O)[C@H](Cc2ccccc2)NC1=O` and write its reported Potency.
inactive

Please give the documented Potency of `Clc1cc2c(c(CSC3=NCN(CC4CC4)CN3)c1)OCOC2`
3.16 µM (active)

Provide one value: measured Potency of `CCN(CC(=O)O)CC(=O)O`
inactive

Check the records and state Potency for `N/N=C1/c2ccccc2N[C@H]1OC(=O)Nc1ccccc1`
0.501 µM (active)

Item `Nc1nc(SCc2ccccc2)c2ncn(Cc3ccccc3)c2n1` : provide Potency
0.251 µM (active)

Entry `CC(C)C(=O)Cc1ccc2ccccc2n1` needs its Potency filled in; supply it.
3.16 µM (active)

---
Please indicate Potency recorded for `O=C(C[n+]1ccc2ccccc2c1)c1ccc2ccc3ccccc3c2c1`
2.51 µM (active)

Look up and state reported Potency for `CCN=C(N)CSS(=O)(=O)O`
inactive

Output measured Potency for this item: `COc1cc(NCCC(=O)O)c2ncccc2c1`
inactive

Fill in reported Potency for this entry: `Nc1ccn([C@H]2CC[C@H](CO)O2)c(=O)n1`
inactive

Indicate its recorded Potency; the molecule in question is `CS(=O)(=O)Nc1ccc(Nc2c3ccccc3nc3ccccc23)cc1`
3.98 µM (active)

Indicate the recorded Potency value for this molecule: `COc1ccc(Oc2ncc3nc(CCc4ccccc4)c(=O)n(C4CC4)c3n2)cc1`
12.6 µM (active)

====

# Test system: TAB113
# assay.remarks: qHTS profiling for inhibitors of Plasmodium falciparum proliferation (AID 504749); note: nearly all actives have a fitted effect of over 60% in size
# applied.conditions: P. falciparum in erythrocytes, SYBR Green DNA, 72 h; series mostly up to 28.7 µM
Results filed as inconclusive are left out. Calls of active or inactive are those of the source. Calls follow the shape of the dose curve; as a rule, active = well fitted inhibition curve with a large enough effect; inconclusive = small, poorly fitted or top-dose-only effect; inactive = flat fitted curve, though single readings scatter.
One label from this list, please: active, inactive

Look over these answered cases.
What did the test return for `CC1(C)S[C@@H]2[C@H](NC(=O)Cc3ccccc3)C(=O)N2[C@@H]1C(=O)O` ?
inactive

Hi, do you know how `CC1(C)[C@@H]2CC[C@]1(C)[C@@H](OC(=O)CSC#N)C2` came out in this test?
inactive

// return assay outcome for `C[C@]12CC[C@H]3c4ccc(O)cc4CC[C@@H]3[C@H]1CC[C@@H]2OP(=O)(O)O`
inactive

Could you please tell me the result logged for `NS(=O)(=O)c1cc2c(cc1Cl)N[C@H](Cc1ccccc1)NS2(=O)=O` in this assay?
inactive

Entry `COc1cc2nc(N(C)CCCNC(=O)[C@@H]3CCCO3)nc(N)c2cc1OC` : call = ?
inactive

Call for entry `CN(C)[C@H]1C(=O)C(C(=O)NCN2CCCC2)=C(O)[C@]2(O)C(=O)C3=C(O)c4c(O)cccc4[C@](C)(O)[C@H]3C[C@H]12` :
inactive

// outcome(item) with item = `C[C@H](CCC(=O)O)[C@H]1CC[C@@H]2[C@H]3[C@@H](C[C@@H](O)[C@]21C)[C@]1(C)CC[C@H](O)C[C@@H]1C[C@@H]3O`
inactive

Please share the test call associated with `CC(C)(C)c1ccc(CN2CCN([C@H](c3ccccc3)c3ccc(Cl)cc3)CC2)cc1` .
active

More entries:
I would be grateful if you could indicate the recorded call for CN1[C@@H]2CC(OC(=O)[C@@H](CO)c3ccccc3)C[C@@H]1[C@H]1O[C@H]12 (some centres undefined) .
inactive

Per the records of this test, what outcome belongs to `OC[C@H](S)CS` ?
inactive

Write down the call the test reported for this compound. Item: `C(=C/c1ccccc1)/CN1CCN(C(c2ccccc2)c2ccccc2)CC1`
inactive

Which outcome was entered for the compound `CC(C)(C)NC[C@@H](O)c1ccc(O)c(CO)n1` in this test?
inactive

Given `O=C(O)[C@@H](O)[C@@H](O)[C@H](O)C(=O)CO` , state the outcome it received in this test.
inactive

What is the recorded call for this compound in the test? `O=C(O)[C@@H](S)[C@H](S)C(=O)O`
active

# credit: PubChem BioAssay (NCATS)
